Target: T1, FAT-H23 (hFAK904-1052 with K955A, R962A, I998A) (human, UniProt Q05397 904-1052, K955A | R962A | I998A)
T1 sequence: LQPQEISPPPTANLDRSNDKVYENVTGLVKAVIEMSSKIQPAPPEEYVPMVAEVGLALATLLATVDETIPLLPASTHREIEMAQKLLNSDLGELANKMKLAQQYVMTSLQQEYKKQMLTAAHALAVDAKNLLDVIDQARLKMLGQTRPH
Assay: FP
Ends that are not written are not given here.
In this section, each of the binders is paired with its reported Kd.

BINDER: paxillin LD2/4 peptide (LD2 and LD4 motifs separated by a designed linker) (also: FITC label, position not given here) SNLSELDRLLLELNAVQHNGSGSGGSGGSGGSGGSGGSGGSGGSGGSATRELDELMASLSD
Kd: 1800 nM

Please give measured Kd of the following entry: SNLSELDRLLLELNAVQHN (also: FITC label, position not given here) [paxillin LD2 peptide]
3900 nM
